B1: VH:VL chains; a variant is named by its letters at X, in order (parent)
chain 1: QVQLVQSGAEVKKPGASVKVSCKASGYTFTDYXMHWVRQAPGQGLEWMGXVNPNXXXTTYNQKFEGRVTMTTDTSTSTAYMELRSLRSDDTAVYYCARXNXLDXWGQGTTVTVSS
chain 2: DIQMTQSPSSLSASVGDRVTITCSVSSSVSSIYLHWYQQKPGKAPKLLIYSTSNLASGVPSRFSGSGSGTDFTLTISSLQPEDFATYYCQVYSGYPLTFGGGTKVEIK

Variants of: B1
Experiment: yeast display scFab, FACS + sequencing
property: non-specific binding call

Take a look at these entries with their results.
>>> testresult("VEAGSDGV")
"no binding"
>>> testresult("YAGGGDGA")
"no binding"
>>> testresult("YARADDSA")
"no binding"
>>> testresult("VRGKGSLA")
"binds"
>>> testresult("YAGEASAV")
"no binding"
>>> testresult("VKRGSSSD")
"binds"
>>> testresult("YKAKGAAA")
"binds"
>>> testresult("YAKADSGA")
"binds"
>>> testresult("VEEEAFAV")
"no binding"
>>> testresult("YREGGSGV")
"binds"

# variant YRRRGAWF ; its non-specific binding call = binds

# variant FRRGDAGD ; its non-specific binding call = binds

# variant YRRGGAWY ; its non-specific binding call = binds

# variant AARADDWV ; its non-specific binding call = no binding

# variant DAEGDAGD ; its non-specific binding call = no binding

# variant VRGRSSAA ; its non-specific binding call = binds
